Catalogue of molecules with associated activation at 1 µM
Target: Adrenergic β2 (H292 cells) (Homo sapiens, UniProt P07550)
Construct: endogenous in cells; host or cells: H292 cells
Sequence (P07550 whole entry): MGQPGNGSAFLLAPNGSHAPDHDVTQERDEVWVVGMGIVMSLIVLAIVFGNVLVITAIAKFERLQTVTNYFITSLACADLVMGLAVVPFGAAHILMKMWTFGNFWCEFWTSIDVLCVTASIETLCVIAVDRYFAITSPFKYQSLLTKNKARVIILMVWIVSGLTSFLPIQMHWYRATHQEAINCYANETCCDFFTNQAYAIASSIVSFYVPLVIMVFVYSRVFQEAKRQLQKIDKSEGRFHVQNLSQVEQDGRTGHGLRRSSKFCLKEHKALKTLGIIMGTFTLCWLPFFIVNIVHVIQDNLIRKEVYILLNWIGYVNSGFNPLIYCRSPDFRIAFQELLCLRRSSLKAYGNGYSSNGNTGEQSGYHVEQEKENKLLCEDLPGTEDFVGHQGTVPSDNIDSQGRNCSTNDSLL
Assay: Adrenergic β2 Mediated cAMP Production, single concentration 1 μM
Format: cell-based
Details: NCI-H292, 1 μM compound, percentage of the maximum response generated by 1E-07M formoterol, read-out: β2 (% effect at 1 μM)
measured quantity: activation at 1 µM (%)

> print(dat)
                             compound.smiles  numeric.result
 1  CC(C)n1nnc2cc(C(=O)N3CCOC4(CCN(Cc5cc(F)cc(CCNC[C@H](O)c6ccc(O)c7[nH]c(=O)sc67)c5)CC4)C3)ccc21             100
 2  Cc1cccc(C(=O)N2CCOC3(CCN(Cc4cc(F)cc(CCNC[C@H](O)c5ccc(O)c6[nH]c(=O)sc56)c4)CC3)C2)c1              82
 3  Cc1cc(C(=O)N2CCOC3(CCN(CCOc4ccc(CNC[C@H](O)c5ccc(O)c6[nH]c(=O)sc56)cc4)CC3)C2)c(C)s1              84
 4  Cc1sccc1C(=O)N1CCOC2(CCN(CCOc3ccc(CNC[C@H](O)c4ccc(O)c5[nH]c(=O)sc45)cc3)CC2)C1              72
 5  CC(C)c1cc(C(=O)N2CCOC3(CCN(Cc4cc(F)cc(CCNC[C@H](O)c5ccc(O)c6[nH]c(=O)sc56)c4)CC3)C2)no1              95
 6  Cc1ccc2[nH]c(C(=O)N3CCOC4(CCN(Cc5cc(F)cc(CCNC[C@H](O)c6ccc(O)c7[nH]c(=O)sc67)c5)CC4)C3)cc2c1             102
 7  O=C(c1ccc(-n2ccnc2)cc1)N1CCOC2(CCN(Cc3cc(F)cc(CCNC[C@H](O)c4ccc(O)c5[nH]c(=O)sc45)c3)CC2)C1             106
 8  Cc1occc1C(=O)N1CCOC2(CCN(Cc3cc(F)cc(CCNC[C@H](O)c4ccc(O)c5[nH]c(=O)sc45)c3)CC2)C1              95
 9  Cc1nn(-c2ccccc2)nc1C(=O)N1CCOC2(CCN(Cc3cc(F)cc(CCNC[C@H](O)c4ccc(O)c5[nH]c(=O)sc45)c3)CC2)C1             102
10  O=C(c1ccc(Cl)s1)N1CCOC2(CCN(CCCCCCCCCNC[C@H](O)c3ccc(O)c4[nH]c(=O)sc34)CC2)C1              77
11  CC(C)c1cc(C(=O)N2CCOC3(CCN(CCCCCCCCCNC[C@H](O)c4ccc(O)c5[nH]c(=O)sc45)CC3)C2)no1              82
12  O=C(c1ccc2occc2c1)N1CCOC2(CCN(Cc3cc(F)cc(CCNC[C@H](O)c4ccc(O)c5[nH]c(=O)sc45)c3)CC2)C1              93
13  Cn1cccc1C(=O)N1CCOC2(CCN(CCOc3ccc(CNC[C@H](O)c4ccc(O)c5[nH]c(=O)sc45)cc3)CC2)C1              74

###

Molecular target: human muscarinic acetylcholine M3 receptor (M3-ACh) (Homo sapiens)
Construct: expressed in transfected cells; host or cells: CHO-K1 (Chinese Hamster Ovary) cell membranes
Sequence (P20309 whole entry): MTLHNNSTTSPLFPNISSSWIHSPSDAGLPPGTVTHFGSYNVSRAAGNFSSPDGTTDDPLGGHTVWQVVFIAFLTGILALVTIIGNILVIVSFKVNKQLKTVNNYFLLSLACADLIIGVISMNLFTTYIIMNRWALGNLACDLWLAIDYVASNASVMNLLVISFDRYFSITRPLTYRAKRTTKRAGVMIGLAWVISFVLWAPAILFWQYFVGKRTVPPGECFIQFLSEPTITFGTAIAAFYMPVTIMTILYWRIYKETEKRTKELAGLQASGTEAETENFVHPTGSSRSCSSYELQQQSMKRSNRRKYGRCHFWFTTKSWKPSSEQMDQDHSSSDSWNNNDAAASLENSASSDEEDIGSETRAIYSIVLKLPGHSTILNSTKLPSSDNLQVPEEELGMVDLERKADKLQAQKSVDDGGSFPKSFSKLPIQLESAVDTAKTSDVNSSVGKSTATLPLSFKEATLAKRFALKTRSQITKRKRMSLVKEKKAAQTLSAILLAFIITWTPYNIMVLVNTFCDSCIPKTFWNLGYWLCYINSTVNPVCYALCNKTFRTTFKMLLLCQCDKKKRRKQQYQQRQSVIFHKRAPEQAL
Assay: Muscarinic 3 Receptor Binding Assay, % inhibition specific binding at 1 μM
Conditions: 1 μM compound, % inhibition specific [3H]-NMS binding
Recorded measurements of inhibition at 1 µM, one per entry
measured quantity: inhibition at 1 µM (%)

> print(dat)
                                   compound                               target.desc  units.text  numeric.result
1  O=C(CCn1cncn1)N1CCOC2(CCN(Cc3cc(F)cc(CCNC[C@H](O)c4ccc(O)c5[nH]c(=O)sc45)c3)CC2)C1  human muscarinic acetylcholine M3 receptor (M3-ACh) (Homo sapiens)           %              35
2  O=C(c1ccccc1)N1CCOC2(CCN(CCOc3ccc(CNC[C@H](O)c4ccc(O)c5[nH]c(=O)sc45)cc3)CC2)C1  human muscarinic acetylcholine M3 receptor (M3-ACh) (Homo sapiens)           %              56
3  CC1=NNC(=O)C1CCC(=O)N1CCOC2(CCN(Cc3cc(F)cc(CCNC[C@H](O)c4ccc(O)c5[nH]c(=O)sc45)c3)CC2)C1 (stereo partly drawn)  human muscarinic acetylcholine M3 receptor (M3-ACh) (Homo sapiens)           %              42

###

Molecular target: human muscarinic acetylcholine M3 receptor (M3-ACh) (Homo sapiens)
Construct: expressed in transfected cells; host or cells: CHO-K1 (Chinese Hamster Ovary) cell membranes
Assay: Muscarinic 3 Receptor Binding Assay, % inhibition specific binding at 1 μM
Settings: 1 μM compound, % inhibition specific [3H]-NMS binding
measured quantity: inhibition at 1 µM (%)

> print(dat)
                            compound.smiles   measured.quantity  numeric.result
1  Cc1nc2cc(C(=O)N3CCOC4(CCN(CCOc5ccc(CNC[C@H](O)c6ccc(O)c7[nH]c(=O)sc67)cc5)CC4)C3)ccc2s1  inhibition at 1 µM              38
2  Cc1ccnn1CC(=O)N1CCOC2(CCN(CCCCCCCCCNC[C@H](O)c3ccc(O)c4[nH]c(=O)sc34)CC2)C1  inhibition at 1 µM              70
3  Cc1nc(C)c(CC(=O)N2CCOC3(CCN(CCCCCCCCCNC[C@H](O)c4ccc(O)c5[nH]c(=O)sc45)CC3)C2)s1  inhibition at 1 µM              68
4  Cc1nn(-c2ccccc2)nc1C(=O)N1CCOC2(CCN(Cc3cc(F)cc(CCNC[C@H](O)c4ccc(O)c5[nH]c(=O)sc45)c3)CC2)C1  inhibition at 1 µM              42
5  O=C(CCc1c[nH]c2ccccc12)N1CCOC2(CCN(Cc3cc(F)cc(CCNC[C@H](O)c4ccc(O)c5[nH]c(=O)sc45)c3)CC2)C1  inhibition at 1 µM              14

###

Biological target: Adrenergic β2 (H292 cells) (Homo sapiens)
Construct: endogenous in cells; host or cells: H292 cells
Assay: Assay for Adrenergic β2 Mediated cAMP Production (concentration response, AlphaScreen cAMP detection)
Type: cell-based
Conditions: cAMP production, 60 minutes at room temperature, 300 μM rolipram, read-out: β2 pEC50 (converted)
Structures can show the parent of a compound that is named as a salt.
The following compounds are shown together with reported EC50 values.

compound	units text	EC50
O=C(c1csc(C2CC2)n1)N1CCOC2(CCN(CCCCCCCCCNC[C@H](O)c3ccc(O)c4[nH]c(=O)sc34)CC2)C1 [Example 218]	nM	25.1
CC(C)(C)c1nc(C(=O)N2CCOC3(CCN(Cc4cc(CCNC[C@H](O)c5ccc(O)c6[nH]c(=O)sc56)cs4)CC3)C2)cs1 [Example 43, ditrifluoroacetate]	nM	5.01
O=C(c1csc(CC(F)(F)F)n1)N1CCOC2(CCN(Cc3cccc(CCNC[C@H](O)c4ccc(O)c5[nH]c(=O)sc45)c3F)CC2)C1 [Example 67, ditrifluoroacetate]	nM	15.8
Cc1ccc(C(=O)N2CCOC3(CCN(Cc4cc(F)cc(CCNC[C@H](O)c5ccc(O)c6[nH]c(=O)sc56)c4)CC3)C2)s1 [Example 118]	nM	6.31
Cc1csc(C(=O)N2CCOC3(CCN(Cc4cc(F)cc(CCNC[C@H](O)c5ccc(O)c6[nH]c(=O)sc56)c4)CC3)C2)c1 [Example 60, ditrifluoroacetate]	nM	5.01
Cc1ccc(C(=O)N2CCOC3(CCN(CCCCCCCCCNC[C@H](O)c4ccc(O)c5[nH]c(=O)sc45)CC3)C2)o1 [Example 198]	nM	12.6
CC(C)c1nc(C(=O)N2CCOC3(CCN(Cc4cccc(CCNC[C@H](O)c5ccc(O)c6[nH]c(=O)sc56)c4)CC3)C2)cs1 [Example 22]	nM	10
Cc1nc(C(=O)N2CCOC3(CCN(CCOc4cccc(CNC[C@H](O)c5ccc(O)c6[nH]c(=O)sc56)c4)CC3)C2)cs1 [Example 10, ditrifluoroacetate]	nM	316
CC(CCCCCCCCN1CCC2(CC1)CN(C(=O)c1csc(C(C)C)n1)CCO2)NC[C@H](O)c1ccc(O)c2[nH]c(=O)sc12 (stereo partly drawn) [Example 280, formate]	nM	5.01
COC(=O)c1ccc(C(=O)N2CCOC3(CCN(Cc4cccc(CCNC[C@H](O)c5ccc(O)c6[nH]c(=O)sc56)c4)CC3)C2)s1 [Example 30, ditrifluoroacetate]	nM	2.51
Cc1ccc(C(=O)N2CCOC3(CCN(CCc4cccc(CNC[C@H](O)c5ccc(O)c6[nH]c(=O)sc56)c4)CC3)C2)s1 [Example 20, ditrifluoroacetate]	nM	200
Cc1ccc(S(=O)(=O)N2CCOC3(CCN(Cc4cc(F)cc(CCNC[C@H](O)c5ccc(O)c6[nH]c(=O)sc56)c4)CC3)C2)s1 [Example 63, ditrifluoroacetate]	nM	5.01
